Tgt: human serum albumin (human) (UniProt P02768)
Sequence (P02768 25-609 limits assumed): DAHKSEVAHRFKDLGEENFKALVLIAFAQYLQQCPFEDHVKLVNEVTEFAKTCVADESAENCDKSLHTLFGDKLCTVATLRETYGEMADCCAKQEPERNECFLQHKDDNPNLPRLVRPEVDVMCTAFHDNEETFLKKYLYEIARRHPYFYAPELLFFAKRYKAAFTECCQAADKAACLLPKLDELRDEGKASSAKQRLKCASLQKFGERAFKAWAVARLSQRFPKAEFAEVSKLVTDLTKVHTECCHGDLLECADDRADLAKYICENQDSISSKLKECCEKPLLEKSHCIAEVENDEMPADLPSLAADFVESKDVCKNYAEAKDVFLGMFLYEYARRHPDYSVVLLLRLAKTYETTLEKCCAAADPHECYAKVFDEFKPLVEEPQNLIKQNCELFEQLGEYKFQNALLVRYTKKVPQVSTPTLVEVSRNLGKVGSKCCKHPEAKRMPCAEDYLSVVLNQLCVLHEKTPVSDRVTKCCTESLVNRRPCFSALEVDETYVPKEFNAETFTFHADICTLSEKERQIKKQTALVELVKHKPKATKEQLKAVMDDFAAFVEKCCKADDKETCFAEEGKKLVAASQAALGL
Assay Explanation: screening ELISA
Test Readout: HSA
I'd appreciate a reply containing only the number, no unit.

Consider the reported HSA for these binders:
Request: Param item = SEQ ID NO 194 (designed binder) MLPAPKNLVVSRVTEDSARLSWTAPDAAFDSFEIDYDELAIYGEAIVLTVPGSERSYDLTGLKPGTEYRVFIYGVKGGWTSWPLSTIFTT ; retrieve measured HSA.
Response: 17800

Request: For SEQ ID NO 155 (designed binder) MLPAPKNLVVSRVTEDSARLSWTAPDAAFDSFPITYRERSQYGEAIVLTVPGSERSYDLTGLKPGTEYVVPIEGVKGGRGSKPLSAIFTT , what is its reported HSA?
Response: 26000

Request: Endpoint output: HSA of SEQ ID NO 35 (designed binder) MLPAPKNLVVSRVTEDSARLSWTAPDAAFDSFEIAYFEAIWNGEAIYLTVPGSERSYDLTGLKPGTEYQVEIRGVKGGPTSRPLFAWFTT . Value?
Response: 1520

--- query ---
Request: Value lookup for HSA; key = SEQ ID NO 214 (designed binder) MLPAPKNLVVSRVTEDSARLSWTAPDAAFDSFAIPYGERQELGEAIVLTVPGSERSYDLTGLKPGTEYFVVIQGVKGGQPSYPLSAIFTT
Response: 2200
